The values you see were collected from the nanobody polyreactivity screen of Harvey et al. (2022).

Experiment: yeast display, Sf9 membrane polyspecificity reagent, FACS + sequencing; frameworks hold sequencing errors
assayEndpoint: polyreactivity (PSR sort gate)

Record excerpt, results attached:
polymerSequence: HVQLVESGGGLVQAGGSLRLSCAASRRTFGWYAMGWYRQAPGKERELVAAISLSGGSTYYADSVKGRFTISRDNAKNTVYLQRNSLKPDVTAVYDCAAADYWLGYDYWGQGSQVTVSS
polyreactivity (PSR sort gate): low polyreactivity
//
polymerSequence: QVQLLETGGGLVQAGGSLRLSCAPSGRIFRQYVMGWSRQAPGKERELVAAISRSGGTTYYADSVKGRFTISRDNAKNTVYLQMNILKPEDTAVYYCAASFRGQIVGYWGQGTQVTLSS
polyreactivity (PSR sort gate): high polyreactivity
//
polymerSequence: QVQLVESGGGLVQAGGSLRLSCAASGFNFGGYPMGWYRQAPGKERELVADISKRGGSTFYADSVKGRFTISRDNAKNTVYLQMNSLKPEDTAVYYCATRFFYPYWGVYEYYYWGQGTQVTVSS
polyreactivity (PSR sort gate): high polyreactivity
//
polymerSequence: QVHLVETGGGLVHAGGSLRLSCASSGNIFSWYAMGWYRQAPGKEREFVAVIRGRGGSTYYADSVKGRFTISRDNAKNNVYLLMKSLKPEDTAVYYCAIRGFVLYFYRSGYGYGYWGQGTQVTVSS
polyreactivity (PSR sort gate): low polyreactivity

Please turn your attention to the following entry.
# input Record request: polyreactivity (PSR sort gate) value, item QVQIVESGGGLVQAGGSLRLSCAASGSIFRYYAMAWYRQETGKERELVARISSGVSTNYADSVKGRFTISRDNAKNSVYLQMNSLKPEDTAVYYCNARTGWTGRGRYSLRYDYWGQGTQVTVSS
# output high polyreactivity

====

Experiment: yeast display, Sf9 membrane polyspecificity reagent, FACS + sequencing; frameworks hold sequencing errors
assayEndpoint: polyreactivity (PSR sort gate)

Record excerpt, results attached:
polymerSequence: QVQLVESGGGLVQAGGSLRLSCAPSGRIFRYNAMGWYRQAPGKERELVAAITSGGSTNYADSVKGRFTISRDNAKNTVYLQMNRLKPEDTAVYYCAVTGYRPYAYRRRYPYDYWGQGTQVTVSS
polyreactivity (PSR sort gate): high polyreactivity

polymerSequence: QVQLVESGGGLVQAGGSLRLSCAASGRIFSRYAMGWYRQAPGKERELVATITRRGGSTSYADSVKGRFTISRDNAKNTVYLHMNSLKPEDTAVYYCAAQSFYGIYYGQQDYDYWGQGTQVTVSS
polyreactivity (PSR sort gate): high polyreactivity

polymerSequence: QVQLVESGGGVDQAGGSLRLSCAASGSIFDLNARGGYRQAPGTERELVASIRDSGGRTYYADSVKGRFTISRDNAKNTVYLQMNSLKPEDTALYYCAAKPRRPGRGYWGQGTQVTVSS
polyreactivity (PSR sort gate): high polyreactivity

polymerSequence: QVHLVESGGGLVQAGGSLRLSCAASGSILGGNAMGWYRQAPGKERELVAAITFSGGGTYYADSVKGRFTISRDNAKNTVYLQMNSLKPEDTAVYYCAADKDGYTYEFDYWGQGTQVTVSS
polyreactivity (PSR sort gate): low polyreactivity

polymerSequence: QVQLVESGGGLVQAGGSLRLSCAASGFTFYPNTMGWYRQAPGKERELVAAISSSGGRTYYSDSVKGRFTISRDNAKNTVYLQMNSLKPEDTAVYYCNAAKWLTSGGLDYWGIGTQVTVSS
polyreactivity (PSR sort gate): high polyreactivity

polymerSequence: QVQLVESGGGLVQAGGSLRLSCAASGLTFRYYAMGWYRQAPGKERELVAAISRSGGSTYYADSVKGRFTISRDNAKNTVYLQMNSLKPEDTAVYYCAAGRRGGKQGGTRGGDYWGQGTQVTVSS
polyreactivity (PSR sort gate): high polyreactivity

polymerSequence: QVQLVESGGGLVQAGGSLRLSCAASGRTFPSYAMGWYRQAPGKERELVAAISSRGSRTYYADSVKGRFTISRDNAKNTVYLQMNSLKPEDTAVYYCAAKNLWTRKSRYDYWGQGTQVTVSS
polyreactivity (PSR sort gate): high polyreactivity

polymerSequence: QVQHVESGGGLVQAGGSLRLSCAASGIFVDNAMGWYRQARGKERELVAAITSSTDSTYYADSVKGRFPISRDNAKNTVYLQINSLNPEDSAVYYCAVARPGGFYFLVHYGYGYWGQGTQVTVSS
polyreactivity (PSR sort gate): low polyreactivity

# input Record request: polyreactivity (PSR sort gate) value, item QVQLVESGGGLVQAGGSLRLSCAASGRIFFYYAKGWSRQAPGKARELVAAINRGGRTYYADSVKGRFTISRDNAKNTVYLQMNSLKPEDTADYYCAADCHTAKSNFDYWGQGTQVTVSS
# output low polyreactivity

# input Follow-up item: QVQLVESGGGLVQAGGSLRLSCAASGFTIRYYAMGWYRQAPGKERELVAAIDWSGGSTYYADSVKGRFTISRDNAKNTVYLQINSLKPEDTAVYYCNVDFYDLYVYLWYVDYDYWGQGTQVTVSS
# output high polyreactivity

# input Follow-up item: QVQLVESGGGLVQAGGSLRLSCAASGFTFGWYAMGWYRQSPGKERELVAAISYSGGSTYYADSVKGRFTISRDNAKNTVYLQMNSLKPEDTAVYYCNAVLRLRVDSWGQGTQVTVSS
# output high polyreactivity

# input Follow-up item: QVQLVESGGGLVQAGGSLRLSCAASGSIFAGYTMGWYRQAPGKERELVATITRSGTSTFYADSVKGRFTISRDNAKNTVYLQMNSLKPEDTAVYYCAADVTARYDYWGQGTQVTVSS
# output high polyreactivity

# input Follow-up item: QVQLVESGGGLVQAGGSLRLSCAASGLIFKYNAMGWYRQAPGKERELVAAISTSGGSTYYADSVKGRFTISRDNAKNTVYLQMNSLKPEDTAVYYCNAVAGRPFRYYYWGQGTQVTVSS
# output high polyreactivity

# input Follow-up item: QVQLVESGGGLVQAGGSLRLSCADSGRIFVGNAMGWYRQAHGKERELVAAITSSGGSTYYADSVKGRFTISRDNAKNTVYLQMNSLKPEDTAVYYCAARVPYRLKAQPFSNRGYYWGQGTQVTVSS
# output high polyreactivity

# input Follow-up item: QVQLVESGGGLVQAGGSLRLSCAASGLTFKYYTMGWYRQAPGKERELVADISRTGRTSYADSVKGRFTISRDNAKNTDYLQMNSLKPEDTAVYYCNADFYVSGYSLFASIYDYWGQGTQVTVSS
# output high polyreactivity

# input Follow-up item: QVQLVESGGGLVQAGGSLRLSCAASGSTFLRYAMGWYREAPGTERELVAAISVSGGSTYYADSVKGRFTISRDNAKNTVYLQMNSLKPEYTAVYYCIAVTKFHRRYNYWGQGTQVTVSS
# output high polyreactivity

# input Follow-up item: QDQHVESGGGLVQAGGSLRLSCAASGIIFWWYDMGWFRQAPGKERELVAAISTGSRTNYADSVKGRFTISRDNAKNTVYLQMNSLKPEDTAVYYCAGEWVGFSGYYGSGYEMDYWGQGTQVTVSS
# output low polyreactivity

# input Follow-up item: QVQLVESGGGLVQAGGSLRLRCAASGRTFGGNAMGWYRQAPGKERELVAAISFSGGSTYYADSVKGRFTISRDNAKNTVYLQMNSLKPEDTAVYYCAARYYWSVYADQGDYWGQGTQVTVSS
# output low polyreactivity

# input Follow-up item: QVQLVESGGGLVQAGGSLRLSCAASGITFVRNAMGWYRQAPGKEREFVAAISGSGVSTYADSVKGRFTISRDNAKNTVDEQMISLKPEDTAVYYCARDFPWSYAWYDYWGQGTLVTVSS
# output low polyreactivity

# input Follow-up item: QVQIVESGGGLVQAGGSLRLSCAASGRIFNIYAMGWYRQAPGKERELVADIRWNGGSTYYADSVKGRFTISRDNAKNTVYLQMNSLKPEDTAVYYCAAARRRRFYDYYNAWYDVDYWGQGTQVTVSS
# output low polyreactivity

# input Follow-up item: QVQLVESGGGLDQAGGSLRLSCAACGIIFYVYDMGGYRQAPGKERELVPISGSSTYYADSVKGRFTISRDNAKNSVYLQMNSLKPEDTAVYYWSADGVELYDYWGQGTQVTVSS
# output low polyreactivity
